assay protocol: Immunotoxin (SS1P) sensitization/mitigation study. Vehicle arm (DMEM) (AID 1159513); further: potency means the concentration at half of the fitted maximal effect
setup conditions: cell viability with vehicle (DMEM); series mostly up to 46.1 µM
Activity calls are given as the source filed them. How the calls were made is not given here.
quantity kind: Potency

- Cc1cc([C@@H](C)Nc2ccccc2C(=O)O)c2nc(N3CCOCC3)cc(=O)n2c1: 20.9 µM (active)
- Nc1nc(-c2nn(Cc3ccccc3F)c3ncccc23)nc(N)c1N1CCOCC1: inactive
- Fc1cc(-c2cccc3ncc(-c4cnn(C5CCNCC5)c4)nc23)cc(F)c1CN1CCOCC1: 23.5 µM (active)
- CCN(CC)CCOc1ccc(Nc2ncc3cc(-c4c(Cl)cccc4Cl)c(=O)n(C)c3n2)cc1: 0.332 µM (active)
- C[C@@H](Oc1cc(-c2cnn(C3CCNCC3)c2)cnc1N)c1c(Cl)ccc(F)c1Cl: 18.7 µM (active)
- COc1cc(N2CCC(N3CCN(C)CC3)CC2)ccc1Nc1ncc(Cl)c(Nc2ccccc2S(=O)(=O)C(C)C)n1: 5.26 µM (active)
- COc1cccc2nc(-c3cccs3)nc(NN3C(=O)C=C(C)C3=O)c12: 5.9 µM (active)
- O=C(OCC#CCSc1nnc(-c2ccc3ccccc3c2)o1)c1cc2ccccc2s1: inactive
- Cc1ccc(-c2ncn(-c3ccc(Nc4nccc(-c5cccc(N6CCOCC6)c5)n4)cc3)n2)cn1: 0.0235 µM (active)
- COc1cc2c(Oc3ccc(-c4cnc(Nc5ccc(F)cc5)n(C)c4=O)cc3F)ccnc2cc1OCCCN1CCOCC1: 20.9 µM (active)
- CN(C)CCN(C)C(=O)c1ccc(NC(=O)Nc2ccc(-c3nc(N4CCOCC4)c4ccn(CC(F)(F)F)c4n3)cc2)cc1: 0.0264 µM (active)
- O=C(NOC[C@H](O)CO)c1ccc(F)c(F)c1Nc1ccc(I)cc1F: inactive
- NC(=O)c1ccc(I)c([N+](=O)[O-])c1: inactive
- CCC(=O)N[C@H]1CC[C@H](C(=O)N(C)c2ccc(-c3nc4ccccc4o3)cc2)C1: 7.43 µM (active)
- CCOC(=O)C(C)Oc1cccc2c(=O)n(CC(=O)Nc3ccc4c(c3)OCCO4)ccc12 (centres undefined): inactive
- Cc1cn(-c2cc(NC(=O)c3ccc(C)c(Nc4nccc(-c5cccnc5)n4)c3)cc(C(F)(F)F)c2)cn1: 26.4 µM (active)
- Nc1nc(Nc2ccc(S(N)(=O)=O)cc2)nn1C(=O)c1c(F)cccc1F: 3.72 µM (active)
- Cn1cc(-c2ccc3nnc(Sc4ccc5ncccc5c4)n3n2)cn1: inactive
- CC(C)c1ccc(Cn2ccc3c4c(N)nc(NC5CC5)nc4ccc32)cc1: 0.935 µM (active)

---

assay protocol: Quantitative High-Throughput drug screen in 47 multiple myeloma cell lines against the NCATS MIPE library collection: OPM1_PLB cell viability assay (AID 1918989); further: nearly all actives have a fitted effect of over 40% in size
setup conditions: CellTiter-Glo, 48 h; series mostly up to 45.8 µM
From the text: PI: Beverly A. Mock Ph.D. Laboratory of Cancer Biology and Genetics, Center for Cancer Research, National Cancer Institute, National Institute of Health, Bethesda, Maryland […] 5; Detector; 425V; Luminescence; Viewlux PerkinElmer. […] 1. […] Briefly, the corresponding myeloma cell lines were screened in 1,536-well plates with 500 cells, 5-uL per well for inhibition of cell viability (assessed by measuring ATP levels with CellTiterGlo). […]
Results filed as inconclusive are left out. Activity calls are given as the source filed them. Calls follow the shape of the dose curve; as a rule, active = well fitted cell-killing curve with a large enough effect; inconclusive = small, poorly fitted or top-dose-only effect, or effect the other way; inactive = no such curve, though single readings can be large or run the other way.
Outcome codes: 1 = active, 0 = inactive

* O=c1[nH]c2ccccc2n1C1CCN(Cc2ccc(-c3[nH]c4cc5ncnc5cc4nc3-c3ccccc3)cc2)CC1 | 1
* CCOC(=O)Nc1ccc(NCc2ccc(F)cc2)cc1N | 1
* CC1=C(O)C(=O)C=C2C1=CC=C1[C@@]2(C)CC[C@@]2(C)[C@@H]3C[C@](C)(C(=O)O)CC[C@]3(C)CC[C@]12C | 1
* CC(=O)O[C@@]12CO[C@H]1C[C@H](O)[C@@]1(C)C(=O)[C@H](O)C3=C(C)[C@@H](O)C[C@@](O)([C@@H](OC(=O)c4ccccc4)[C@@H]21)C3(C)C | 1
* C[C@]12COC(=O)C[C@@H]1CC[C@@H]1[C@H]2CC[C@@]2(C)[C@H]1CC[C@]2(C)O | 0
* N=c1c2c(-c3ccccc3)c(-c3ccccc3)n(Cc3ccccc3)c2ncn1C1CCC(O)CC1 (configuration not stated) | 1
* CC(C)(O)C=CC(=O)[C@](C)(O)[C@H]1[C@H](O)C[C@]2(C)[C@@H]3CC=C4[C@@H](C=C(O)C(=O)C4(C)C)[C@]3(C)C(=O)C[C@@]12C | 1

---

assay protocol: Quantitative High-Throughput drug screen in 47 multiple myeloma cell lines against the NCATS MIPE library collection: LP1_DSMZ cell viability assay (AID 1918982); further: nearly all actives have a fitted effect of over 35% in size
setup conditions: LP1 myeloma viability, CellTiter-Glo ATP luminescence, 48 h; series mostly up to 45.8 µM
Inconclusive results are not listed. Calls of active or inactive are those of the source. Calls come from the whole dose curve; as a rule, active = well fitted cell-killing curve with a large enough effect; inconclusive = small, poorly fitted or top-dose-only effect, or effect the other way; inactive = no such curve, though single readings can be large or run the other way.
Outcome codes: active, inactive

• C=C[C@@H]1CN2CCC1C[C@H]2[C@H](O)c1ccnc2ccccc12 (some centres undefined) = active
• C1=C2CCCN[C@H]2[C@@H]2C[C@H]1[C@@H]1CCCCN1C2 = inactive
• C[C@@H]1[C@H](O)[C@@H](C)C=CC=CCCC=CC=CC=CC=C[C@H](O[C@H]2O[C@@H](C)[C@H](O)[C@@H](N)[C@@H]2O)CC2O[C@](O)(C[C@@H](O)[C@H](O)CC[C@@H](O)C[C@@H](O)C[C@@H](O)CC(=O)O[C@H]1C)C[C@H](O)[C@H]2C(=O)O = inactive
• O=S(=O)(F)Cc1ccccc1 = inactive
• CC(C)[C@]12O[C@@H]1[C@@H]1O[C@]13[C@]1(O[C@H]1C[C@@H]1C4=C(CC[C@@]13C)C(=O)OC4)[C@H]2O = inactive
• CC(C)(C)c1cc(C=C(C#N)C#N)cc(Br)c1O = active
• C[C@]12CCC(=O)C(O)=C1CC[C@@H]1[C@H]3CCC(=O)[C@@]3(C)CC[C@@H]12 = inactive
• C[C@H]1CCCC=CC2C[C@H](O)C[C@@H]2[C@H](O)C=CC(=O)O1 (some centres undefined) = inactive
• CC=C(C)C(=O)O[C@H]1C(C)=C2[C@@H]3OC(=O)[C@@](C)(O)[C@@]3(O)[C@@H](OC(=O)CCC)C[C@](C)(OC(C)=O)[C@@H]2[C@@H]1OC(=O)CCCCCCC = active

---

assay protocol: qHTS for Inhibitors of the Functional Ribonucleoprotein Complex (vRNP) of Lymphocytic Choriomeningitis Arenaviruses (LCMV): Viability assay - alamar blue signal for LCMV Primary Screen (AID 1347085); further: nearly all actives have a fitted effect of over 80% in size
setup conditions: alamar blue viability counter-screen, LCMV vRNP screen cells; series mostly up to 57.5 µM
Records with an inconclusive call do not appear. Activity calls are given as the source filed them. Calls come from the whole dose curve; tested in HEK293 reporter line.
Outcome codes: YES for active, NO for inactive

* COc1cc(C(O)CN)ccc1O (configuration not stated) | NO
* CNCCc1ccc(O)c(O)c1 | NO
* COc1cccc2nc(-c3cccs3)nc(NN3C(=O)C=C(C)C3=O)c12 | YES
* O=C(N[C@@H](COc1ccc2[nH]c(=O)[nH]c2c1)c1ccccc1)c1cccn(Cc2ccc(F)c(F)c2)c1=O | NO
* CCCCC(CC)COC(=O)/C=C/c1ccc(OC)cc1 (configuration not stated) | NO
* O=C(Oc1ccccc1)c1cccc(C(=O)Oc2ccccc2)c1 | NO
* CCOC(=O)[C@@H](N)CCC(=O)N[C@@H](CSCc1ccccc1)C(=O)N[C@@H](C(=O)OCC)c1ccccc1 | NO
* c1ccc2c(CN3CCNCC3)cccc2c1 | NO
* CC(O)CN1CCN(CC(=O)[O-])CCN(CC(=O)[O-])CCN(CC(=O)[O-])CC1.[Gd+3] (configuration not stated) | NO
* CCn1cc(C(=O)O)c(=O)c2cc3c(cc21)OCO3 | NO
* CCOC(=O)c1cccnc1 | NO
* CC(C)(Sc1ccc(CCN(CCCCC2CCCCC2)C(=O)NC2CCCCC2)cc1)C(=O)O | NO

---

target under test: Chromobox protein homolog 1 (Homo sapiens) (UniProt P83916)
Sequence (P83916 whole entry, looked up): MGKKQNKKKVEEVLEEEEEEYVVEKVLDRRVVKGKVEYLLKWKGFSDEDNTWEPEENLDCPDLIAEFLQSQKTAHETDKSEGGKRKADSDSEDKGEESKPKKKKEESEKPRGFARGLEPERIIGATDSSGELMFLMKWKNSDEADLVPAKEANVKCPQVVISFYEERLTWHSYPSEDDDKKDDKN
assay protocol: qHTS Validation Assay for Inhibitors of HP1-beta Chromodomain Interactions with Methylated Histone Tails (AID 488953); further: nearly all actives have a fitted effect of over 50% in size
setup conditions: HP1-beta chromodomain / methylated histone peptide binding assay; series mostly up to 114 µM
Results filed as inconclusive are left out. Active and inactive are the calls of the source. Calls come from the whole dose curve; as a rule, active = well fitted inhibition curve with a large enough effect; inconclusive = small, poorly fitted or top-dose-only effect; inactive = no such curve, though single readings can be large or run the other way.
Outcome codes: y = active, n = inactive

* c1ccc(CCCN2CCN(CCOC(c3ccccc3)c3ccccc3)CC2)cc1 | y
* COC(=O)[C@@H](N)CCCN=C(N)N[N+](=O)[O-] | n
* CC1=NN=C(c2ccc(N)cc2)c2cc3c(cc2C1)OCO3 | n
* CN1C2CCC1CC(OC(=O)c1cc(Cl)cc(Cl)c1)C2 (configuration not stated) | n
* NC(=O)CN1CC(O)CC1=O (configuration not stated) | n
* CC(C)NC(C)Cc1ccc(I)cc1 (configuration not stated) | n
* C#CCOC(=O)C1=CCCN(C)C1 | n
* CC(Cc1ccc(O)cc1)NCC(O)c1cc(O)cc(O)c1 (configuration not stated) | n
* CC(=O)[C@H]1CCC2C3CC[C@H]4C[C@H](O)CC[C@]4(C)C3CC[C@@]21C (some centres not stated) | n
* NCCc1c[nH]c2ccc(O)cc12 | n
* C[C@@H](N)Cc1cnc[nH]1 | n
* Cc1c(C(=O)c2cccc3ccccc23)c2cccc3c2n1[C@H](CN1CCOCC1)CO3 | y

This collection of values is drawn from PubChem BioAssay (NCATS).
